Catalogue of variants with associated protein stability index
B1: OR3A1 (parent)
chain: PMYFFLGNLSVLDVGCISVTVPSM

- Variants of: B1
- TEST SUMMARY: protein stability index of a GFP-peptide fusion (GPS, HEK-293T) (PSI 1-6); higher = more stable;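 further: lentivirally expressed fusions sorted by FACS into six bins by GFP to DsRed ratio, PSI derived from sequencing read proportions per bin multiplied by bin number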
- MEASUREMENT SETUP: c terminus: a fixed tail appended

>  <MUTATION LABEL>
G15F

>  <protein stability index>
2.94

$$$$
>  <MUTATION LABEL>
L12D

>  <protein stability index>
3.05

$$$$

(Q) # lookup: protein stability index of S18A
(A) 3.06

(Q) Any idea what protein stability index was measured for I17S ?
(A) 3.03
